subject-of-test: Human PD-L1/PD-1 (Homo sapiens, UniProt Q9NZQ7)
Construct: TVMV protease cleavage site (C); made in house; host or cells: HEK293T cells
Sequence (Q9NZQ7 with tags, fused parts or gaps): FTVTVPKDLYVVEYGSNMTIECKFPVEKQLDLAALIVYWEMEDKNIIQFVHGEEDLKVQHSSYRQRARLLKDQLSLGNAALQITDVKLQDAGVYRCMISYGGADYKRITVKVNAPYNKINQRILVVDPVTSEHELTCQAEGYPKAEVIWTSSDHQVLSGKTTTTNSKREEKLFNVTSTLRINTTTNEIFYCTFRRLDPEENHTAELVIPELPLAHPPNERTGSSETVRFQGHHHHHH
assay-summary: HTRF Human PD-L1/PD-1 binding assay (PD-1-Ig/PD-L1-His)
condition-context: PD-L1-His 10 nM, PD-1-Ig 20 nM; class symbol; read-out: HTRF Human PD-L1/PD-1 Binding Assay IC50 Range
pIC50: −log10 of the molar value. Where a SMILES comes first, the peptide text is derived from it. Bridges are numbered along the chain shown (N, C = ends). [ ]: non-standard residue; d: D form. ξ: configuration not given here. Phe(4-F) = N[C@@H](Cc1ccc(F)cc1)C(=O)O; Hyp = O=C(O)[C@@H]1C[C@@H](O)CN1; NMeF = CN[C@@H](Cc1ccccc1)C(=O)O; NMeL = CN[C@@H](CC(C)C)C(=O)O; NMeNle = CCCC[C@H](NC)C(=O)O; Pip = O=C(O)[C@@H]1CCCCN1; NMeA = CN[C@@H](C)C(=O)O; Dab = NCC[C@H](N)C(=O)O; ξC = NC(CS)C(=O)O
// reported pIC50 for each item listed

Completed entries (count: 3):
CCCC[C@H]1C(=O)N(C)CC(=O)N[C@@H](CC(=O)O)C(=O)NC(C(C)c2ccccc2)C(=O)N(C)[C@@H](Cc2ccccc2)C(=O)N[C@@H](Cc2ccc(O)cc2)C(=O)N(C)CC(=O)N[C@@H](Cc2c[nH]c3ccccc23)C(=O)N[C@@H](Cc2ccc(O)cc2)C(=O)N[C@@H](CC(C)C)C(=O)N[C@H](C(=O)NCC(N)=O)CSCC(=O)N[C@@H](Cc2ccccc2)C(=O)N(C)[C@@H](Cc2ccccc2)C(=O)N1C (single isomer, unassigned) [Example 3230-A]; 5.00 to 6.00
CCCC[C@H]1C(=O)N2CCC[C@@H]2C(=O)N[C@@H](CC(=O)O)C(=O)N[C@@H](C(C)C)C(=O)N(C)[C@@H](CC(C)C)C(=O)N[C@@H](Cc2ccc(O)cc2)C(=O)N2CCC[C@@H]2C(=O)N[C@@H](Cc2c[nH]c3ccccc23)C(=O)N[C@@H](Cc2ccc(O)cc2)C(=O)N[C@@H](CC(C)C)C(=O)N[C@H](C(=O)NCC(N)=O)CSCC(=O)N[C@@H](Cc2ccc(F)cc2)C(=O)N(C)[C@@H](Cc2ccccc2)C(=O)N1C [Example 9249] ({CH2CO}-[Phe(4-F)][NMeF][NMeNle][dP]DV[NMeL]Y[dP]WYLCG-NH2; thioether N-13); 6.00 to 7.00
CCCC[C@H]1C(=O)N(C)[C@@H](CCCC)C(=O)N[C@@H](CCC(=O)O)C(=O)NC(C(=O)NCC(N)=O)CSCC(=O)N[C@@H](Cc2ccc(O)cc2)C(=O)N(C)[C@@H](C)C(=O)N[C@@H](CC(N)=O)C(=O)N2CCC[C@H]2C(=O)N[C@@H](CC(N)=O)C(=O)N[C@@H](CC(C)C)C(=O)N2CCC[C@H]2C(=O)N[C@@H](Cc2c[nH]c3ccccc23)C(=O)N[C@@H](CCN)C(=O)N[C@@H](Cc2c[nH]c3ccccc23)C(=O)N1C (stereo partly shown) [Example 9180] ({CH2CO}-Y[NMeA]NPNLPW[Dab]W[NMeNle][NMeNle]E[ξC]G-NH2; thioether N-14); 8.00 to 9.00

For the next question, use this compound.
## Task pIC50 lookup needed for CCCC[C@H]1C(=O)N(C)[C@@H](CCCC)C(=O)N[C@@H](CC(C)C)C(=O)N[C@H](C(=O)NCC(N)=O)CSCC(=O)N[C@@H](Cc2ccc(O)cc2)C(=O)N2CCCC[C@H]2C(=O)N[C@@H](CC(N)=O)C(=O)N2CCC[C@H]2C(=O)N[C@@H](Cc2cnc[nH]2)C(=O)N[C@@H](CCC(N)=O)C(=O)N2C[C@H](O)C[C@H]2C(=O)N[C@@H](Cc2c[nH]c3ccccc23)C(=O)N[C@@H](CO)C(=O)N[C@@H](Cc2c[nH]c3ccccc23)C(=O)N1C [Example 1273] ({CH2CO}-Y[Pip]NPHQ[Hyp]WSW[NMeNle][NMeNle]LCG-NH2; thioether N-14) , thanks.
## Result 8.00 to 9.00
